Assay: Cellular toxicity assay in Vero cells
Type: cell-based
Conditions: African green monkey, read-out: Cytotoxicity, CC50 (μM) VERO
Experimental endpoint: CC50 (µM)
The reply should be a number in µM, with the unit left off.

*Q* # lookup: CC50 of CC(C)C[C@H](NC(=O)[C@H](Cc1cccc2ccccc12)NC(=O)OCc1ccccc1)C(=O)N[C@@H](C[C@@H]1CCCNC1=O)C(O)C(F)(F)F (stereo partly drawn)
*A* 22

*Q* Requested read-out: CC50. Entry: `CC(C)C[C@H](NC(=O)[C@H](Cc1cccc2ccccc12)NC(=O)OCc1ccccc1)C(=O)N[C@H](C=O)C[C@@H]1CCCNC1=O`
*A* 20

*Q* Please report the recorded CC50 for `CC(C)C[C@H](NC(=O)[C@H](Cc1cccc2ccccc12)NC(=O)OCc1ccccc1)C(=O)N[C@@H](C[C@@H]1CCCNC1=O)C(=O)C(F)(F)F` .
*A* 11

*Q* Could you tell me which CC50 is on file for `O=C(N[C@@H](Cc1cccc2ccccc12)C(=O)N[C@@H](Cc1ccccc1)C(=O)N[C@H](CCl)C[C@@H]1CCCNC1=O)OCc1ccccc1` ?
*A* 51.7

*Q* Item under review: `O=C[C@H](C[C@@H]1CCCNC1=O)NC(=O)[C@H](Cc1ccccc1)NC(=O)[C@H](Cc1cccc2ccccc12)NC(=O)OCc1ccccc1` . Reported CC50?
*A* 41.2

###

So I've got a bunch of molecules here, and I need their CC50 values.
Test: Cellular toxicity assay in Huh7 cells
Type: cell-based
Conditions: human, read-out: Cytotoxicity, CC50 (μM) Huh7

*Q* Entry `CC(C)C[C@H](NC(=O)[C@H](Cc1cccc2ccccc12)NC(=O)OCc1ccccc1)C(=O)N[C@H](C=O)C[C@@H]1CCCNC1=O` : reported CC50 = ?
*A* > 10 µM

*Q* I am curious: what CC50 value has been reported for `CC(C)C[C@H](NC(=O)[C@H](Cc1ccc(O)cc1)NC(=O)OCc1ccccc1)C(=O)N[C@H](C=O)C[C@@H]1CCCNC1=O` ?
*A* > 10 µM

*Q* Which measured CC50 value corresponds to CC(C)C[C@H](NC(=O)[C@H](Cc1cccc2ccccc12)NC(=O)OCc1ccccc1)C(=O)N[C@@H](C[C@@H]1CCCNC1=O)C(O)C(F)(F)F (stereo partly drawn) ?
*A* 13 µM

*Q* Look at this molecule and give its reported CC50. CC(C)C[C@H](NC(=O)[C@H](Cc1cccc2ccccc12)NC(=O)OCc1ccccc1)C(=O)N[C@@H](C[C@@H]1CCCNC1=O)C(O)S(=O)(=O)O (stereo partly drawn)
*A* 11 µM

*Q* For the molecule shown here, `CC(C)C[C@H](NC(=O)[C@H](Cc1ccc(F)cc1)NC(=O)OCc1ccccc1)C(=O)N[C@H](C=O)C[C@@H]1CCCNC1=O` , give the reported CC50.
*A* 60 µM

*Q* Using the record for `CC(C)C[C@H](NC(=O)[C@H](Cc1cccc2ccccc12)NC(=O)OCc1ccccc1)C(=O)N[C@H](/C=C(\C#N)C(N)=O)C[C@@H]1CCCNC1=O` , report its CC50.
*A* 8 µM

###

Would you mind telling me the reported IC50 of each entry?
# value in nM; strip the unit string

*Q* For Minerva virus protease (Norovirus GII.4 (Minerva virus)), provide IC50 of CC(C)C[C@H](NC(=O)[C@H](Cc1cccc2ccccc12)NC(=O)OCc1ccccc1)C(=O)N[C@@H](C[C@@H]1CCCNC1=O)C(O)S(=O)(=O)O (some centres unmarked) please.
*A* 2630

*Q* Missing value: IC50, Minerva virus protease (Norovirus GII.4 (Minerva virus)), entry `CC(C)C[C@H](NC(=O)[C@H](Cc1cccc2ccccc12)NC(=O)OCc1ccccc1)C(=O)N[C@H](/C=C(\C#N)C(N)=O)C[C@@H]1CCCNC1=O` . Fill in?
*A* 1170

###

Test: Cellular toxicity assay in Huh7 cells
Assay type: cell-based
Settings: human, read-out: Cytotoxicity, CC50 (μM) Huh7
Experimental endpoint: CC50

*Q* Recorded CC50 of `CC(C)C[C@H](NC(=O)[C@H](Cc1cccc2ccccc12)NC(=O)c1cnccn1)C(=O)N[C@H](C=O)C[C@@H]1CCNC1=O` , please.
*A* > 10 µM

*Q* Which value of CC50 has been reported for `CC(C)C[C@H](NC(=O)[C@H](Cc1cccc2ccccc12)NC(=O)c1cnccn1)C(=O)N[C@H](C=O)C[C@@H]1CCCNC1=O` in the records?
*A* > 10 µM

*Q* Please report the recorded CC50 for `CC(C)C[C@H](NC(=O)[C@H](Cc1cccc2ccccc12)NC(=O)OCc1ccccc1)C(=O)N[C@@H](C[C@@H]1CCCNC1=O)C(=O)C(F)(F)F` .
*A* 14 µM

###

Provide the recorded CC50 for the entries that follow.
Experiment: Cellular toxicity assay in CEM cells
Format: cell-based
Conditions: human, CEM lymphoblastoid cells, read-out: Cytotoxicity, CC50 (μM) CEM
Protocol: The toxicity of the compounds was assessed in Vero, human PBM, CEM (human lymphoblastoid), MT-2, and HepG2 cells, as described previously (see Schinazi R. F., Sommadossi J.-P., Saalmann V., Cannon D. L., Xie M.-Y., Hart G. C., Smith G. A. & Hahn E. F. Antimicrob. Agents Chemother. 1990, 34, 1061-67). Cycloheximide was included as positive cytotoxic control, and untreated cells exposed to solvent were included as negative controls. […]
Express it in µM; write the number only.

*Q* Which value of CC50 has been reported for `O=C(N[C@@H](Cc1cccc2ccccc12)C(=O)N[C@@H](Cc1ccccc1)C(=O)N[C@H](CCl)C[C@@H]1CCCNC1=O)OCc1ccccc1` in the records?
*A* 26.6

*Q* Find the recorded CC50 belonging to `O=C[C@H](C[C@@H]1CCCNC1=O)NC(=O)[C@H](Cc1ccccc1)NC(=O)[C@H](Cc1cccc2ccccc12)NC(=O)OCc1ccccc1` and report it.
*A* 17

*Q* Param item = `CC(C)C[C@H](NC(=O)[C@H](Cc1ccc(F)cc1)NC(=O)OCc1ccccc1)C(=O)N[C@H](C=O)C[C@@H]1CCCNC1=O` ; retrieve measured CC50.
*A* 35

*Q* Can you look up the measured CC50 of CC(C)C[C@H](NC(=O)[C@H](Cc1cccc2ccccc12)NC(=O)OCc1ccccc1)C(=O)N[C@@H](C[C@@H]1CCCNC1=O)C(O)C(F)(F)F (stereo partly shown) for me?
*A* 6

###

Tested on: NoV replicon RNA in HG23 cells (derived from Huh-7 cells)
Test: Norwalk virus replicon assay in HG23 cells
Format: cell-based
Details: 120 h, five days incubation, read-out: Anti-NoV activity (μM) EC90
API: label(entry) gives criterion met if the entry's EC90 is strictly smaller than 0.3 µM; on equality or larger values it gives criterion not met.

*Q* State whether 0.3 µM exceeds EC90 recorded for O=C[C@H](C[C@@H]1CCCNC1=O)NC(=O)[C@H](Cc1ccccc1)NC(=O)[C@H](Cc1cccc2ccccc12)NC(=O)OCc1ccccc1 [Compound 83] .
*A* criterion not met

*Q* Lab note: EC90 threshold 0.3 µM. Does this compound come in strictly under it? CC(C)C[C@H](NC(=O)[C@H](Cc1cccc2ccccc12)NC(=O)c1cnccn1)C(=O)N[C@H](C=O)C[C@@H]1CCCNC1=O [Compound 23]
*A* criterion not met

*Q* Just wondering, is EC90 of CC(C)C[C@H](NC(=O)[C@H](Cc1ccc(O)cc1)NC(=O)OCc1ccccc1)C(=O)N[C@H](C=O)C[C@@H]1CCCNC1=O [Compound 11] below 0.3 µM?
*A* criterion not met

*Q* Consider CC(C)C[C@H](NC(=O)[C@H](Cc1cccc2ccccc12)NC(=O)OCc1ccccc1)C(=O)N[C@@H](C[C@@H]1CCNC1=O)C1OC1S(C)(=O)=O (stereo partly drawn) [Compound 67] . Does its EC90 lie strictly below 0.3 µM?
*A* criterion not met

*Q* hey, is EC90 for CC(C)C[C@H](NC(=O)[C@H](Cc1cccc2ccccc12)NC(=O)c1cnccn1)C(=O)N[C@H](C=O)C[C@@H]1CCNC1=O [Compound 29] lower than 0.3 µM or not?
*A* criterion not met

*Q* State whether 0.3 µM exceeds EC90 recorded for CC(C)C[C@H](NC(=O)[C@H](Cc1cccc2ccccc12)NC(=O)OCc1ccccc1)C(=O)N[C@H](C=O)C[C@@H]1CCCNC1=O [Compound 19] .
*A* criterion met

###

Target: Norovirus GI.1 (Norwalk virus) protease (Norovirus (strain Human/NoV/United States/Norwalk/1968/GI) (Hu/NV/NV/1968/US))
Sequence (Q83883 1101-1281): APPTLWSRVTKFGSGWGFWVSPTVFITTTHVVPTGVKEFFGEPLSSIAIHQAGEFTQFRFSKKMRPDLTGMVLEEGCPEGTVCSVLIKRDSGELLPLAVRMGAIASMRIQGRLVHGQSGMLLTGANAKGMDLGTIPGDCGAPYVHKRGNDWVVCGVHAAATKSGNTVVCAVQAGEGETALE
Assay: FRET based enzyme assay, Norovirus GI.1 protease
Conditions: 37° C.
Experimental endpoint: IC50

*Q* For the molecule shown here, CC(C)C[C@H](NC(=O)[C@H](Cc1cccc2ccccc12)NC(=O)OCc1ccccc1)C(=O)N[C@@H](C[C@@H]1CCCNC1=O)C(=O)C(F)(F)F [Compound 39] , give the reported IC50.
*A* > 10 µM

*Q* Please give the measured IC50 for this molecule: O=C[C@H](C[C@@H]1CCCNC1=O)NC(=O)[C@H](Cc1ccccc1)NC(=O)[C@H](Cc1cccc2ccccc12)NC(=O)OCc1ccccc1 [Compound 83]
*A* 0.084 µM

*Q* Any idea what its IC50 is? The molecule is CC(C)C[C@H](NC(=O)[C@H](Cc1cccc2ccccc12)NC(=O)OCc1ccccc1)C(=O)N[C@@H](C[C@@H]1CCNC1=O)C1OC1S(C)(=O)=O (stereo partly drawn) [Compound 67]
*A* > 10 µM

*Q* Recorded IC50 for CC(C)C[C@H](NC(=O)[C@H](Cc1ccc(F)cc1)NC(=O)OCc1ccccc1)C(=O)N[C@H](C=O)C[C@@H]1CCCNC1=O [Compound 35] , please?
*A* 0.096 µM

*Q* May I ask what IC50 has been recorded for CC(C)C[C@H](NC(=O)[C@H](Cc1cccc2ccccc12)NC(=O)OCc1ccccc1)C(=O)N[C@H](/C=C(\C#N)C(N)=O)C[C@@H]1CCCNC1=O [Compound 36] ?
*A* 0.593 µM

*Q* If you can, please state the reported IC50 value of CC(C)C[C@H](NC(=O)[C@H](Cc1cccc2ccccc12)NC(=O)OCc1ccccc1)C(=O)N[C@@H](C[C@@H]1CCCNC1=O)C(O)C(F)(F)F (stereo partly drawn) [Compound 38] .
*A* > 10 µM
